Please provide measured residual activity for the entries that follow.
# measured-on: HIPK1 (human) (UniProt Q86Z02)
# Sequence (Q86Z02 whole entry, looked up): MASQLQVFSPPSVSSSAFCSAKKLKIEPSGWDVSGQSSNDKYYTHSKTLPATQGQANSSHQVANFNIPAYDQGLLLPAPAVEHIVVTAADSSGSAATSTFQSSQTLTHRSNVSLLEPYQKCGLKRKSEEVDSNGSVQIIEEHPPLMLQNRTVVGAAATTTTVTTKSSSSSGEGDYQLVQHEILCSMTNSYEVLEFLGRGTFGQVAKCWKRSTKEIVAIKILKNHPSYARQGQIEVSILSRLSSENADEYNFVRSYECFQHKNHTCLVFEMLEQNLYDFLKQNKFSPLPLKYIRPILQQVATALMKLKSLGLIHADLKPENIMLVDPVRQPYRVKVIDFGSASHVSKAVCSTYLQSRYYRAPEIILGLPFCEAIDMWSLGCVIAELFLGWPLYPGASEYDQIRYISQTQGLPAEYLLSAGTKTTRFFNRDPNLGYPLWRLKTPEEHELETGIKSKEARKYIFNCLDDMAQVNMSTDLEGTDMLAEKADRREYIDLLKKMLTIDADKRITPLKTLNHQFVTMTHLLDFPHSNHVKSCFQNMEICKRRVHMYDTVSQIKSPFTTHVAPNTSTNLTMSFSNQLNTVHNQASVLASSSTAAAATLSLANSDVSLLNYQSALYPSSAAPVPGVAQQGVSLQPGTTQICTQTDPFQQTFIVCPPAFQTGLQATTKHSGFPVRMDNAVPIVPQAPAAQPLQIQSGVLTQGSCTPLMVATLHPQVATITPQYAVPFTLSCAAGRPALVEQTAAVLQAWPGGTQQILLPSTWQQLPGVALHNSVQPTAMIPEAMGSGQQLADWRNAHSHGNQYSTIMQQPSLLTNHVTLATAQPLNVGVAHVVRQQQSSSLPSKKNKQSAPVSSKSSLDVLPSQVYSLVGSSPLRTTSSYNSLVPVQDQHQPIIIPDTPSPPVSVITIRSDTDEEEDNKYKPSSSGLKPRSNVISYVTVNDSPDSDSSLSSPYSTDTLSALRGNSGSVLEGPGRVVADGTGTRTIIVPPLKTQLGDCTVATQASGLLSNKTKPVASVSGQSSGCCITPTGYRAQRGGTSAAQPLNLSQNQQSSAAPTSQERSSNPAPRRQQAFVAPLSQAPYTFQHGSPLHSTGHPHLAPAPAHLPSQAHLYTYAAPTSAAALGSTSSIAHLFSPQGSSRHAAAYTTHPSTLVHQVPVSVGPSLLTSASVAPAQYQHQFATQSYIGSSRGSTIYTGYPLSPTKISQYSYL
# assay-protocol: radiometric filter-binding kinase assay
# applied-conditions: compound 1.0 µM

### Prompt Quick one: residual activity for "CN1C(=O)[C@@H](Cc2c[nH]c3ccccc23)NC1=S" ?
### Response 91%

### Prompt Now give it for "c1ccc2c(-c3cnn4cc(-c5ccc(N6CCNCC6)cc5)cnc34)ccnc2c1" too.
### Response 99%

### Prompt Query "CCCCCc1ccc(/C=C/[C@H](O)[C@@H](CO)NC)cc1" next
### Response 112%

### Prompt Please give the result for "O=C(Nc1nc2cc(C(F)(F)F)cc(NC3CC3)n2n1)c1cccnc1" too.
### Response 92%

### Prompt Same question, "Cc1ccc(Sc2cnc(Nc3cccc(Br)n3)s2)cc1C(=O)N1CCN(C(=O)CN)CC1" this time
### Response 42%

### Prompt Same again, this time with "NC1(c2ccc(-c3nc4ccn5c(=O)[nH]nc5c4cc3-c3ccccc3)cc2)CCC1"
### Response 85%

### Prompt What about CNC(=O)C1[C@H]2O[C@@](C)([C@@H]1N)n1c3ccccc3c3c4c(c5c6ccccc6n2c5c31)C(=O)NC4 (some centres undefined) ?
### Response 22%

### Prompt Moving on to the next compound: "FC(F)(F)c1ccc(-c2ccc(Oc3cncc4sc(-c5nn[nH]n5)cc34)cc2)cc1"
### Response 65%

### Prompt Now consider "O=C(N[C@@H](COc1ccc2[nH]c(=O)[nH]c2c1)c1ccccc1)c1cccn(Cc2ccc(F)c(F)c2)c1=O" and answer again.
### Response 100%

---

For each entry below, report its residual activity value.
# measured-on: PRKCG (human) (UniProt P05129)
# assay-protocol: radiometric filter-binding kinase assay
# applied-conditions: compound 10.0 µM
Use % as the unit, but write only the number.

### Prompt Fill in: residual activity of "O=S(=O)(c1ccc(F)c2nonc12)N1CCN(c2ncc(C(F)(F)F)cc2Cl)CC1" is ___
### Response 98

### Prompt Same again, this time with "CCCCCc1ccc(/C=C/[C@H](O)[C@@H](CO)NC)cc1"
### Response 96

### Prompt Another molecule to check: "NC(=O)c1cc(-c2ccnc(NC3CCCCC3)c2)nc(N2CCNCC2)c1"
### Response 115

### Prompt # repeat for "Cc1ccc(=O)n(-c2ccccc2)c1"
### Response 94

### Prompt What do you have for "CCNc1nc(Nc2cc(F)c(C(=O)N3CCOCC3)cc2OC)ncc1C(F)(F)F" ?
### Response 95

### Prompt Now consider "CNc1nc(-c2ccc3c(N)n[nH]c3c2)cc(N2C[C@@H](C(=O)NC3CCCCC3)CC[C@H]2C)n1" .
### Response 87

### Prompt For "Cc1ccc(-c2ccc3c(ccc4sc5c(c43)NC[C@@H](C)NC5=O)n2)cn1" then?
### Response 101

### Prompt Would you kindly repeat that for "c1ccc2c(-c3cnn4cc(-c5ccc(N6CCNCC6)cc5)cnc34)ccnc2c1" ?
### Response 92

### Prompt Moving on to the next molecule: "NC(=O)c1c(NC(=O)C2CC2)sc2c1CCCC2"
### Response 110

### Prompt Input "CC(C)(C#N)c1ccc(N2C(=O)OCc3cnc4ccc(-c5cnc6ccccc6c5)cc4c32)cc1"
### Response 99

### Prompt Next molecule up: CC1=C(CO)C(=O)O[C@@H]([C@@H](C)[C@H]2CC[C@H]3[C@@H]4C[C@H]5O[C@]56[C@@H](O)C=CC(=O)[C@]6(C)C4CC[C@]23C)C1 (stereo partly specified)
### Response 102

### Prompt One more molecule: "O=C(NOC[C@H](O)CO)c1ccc(F)c(F)c1Nc1ccc(I)cc1Cl"
### Response 99

### Prompt Also "NCC(=O)Nc1ccc(-n2nc(C(F)(F)F)cc2-c2ccc3c(ccc4ccccc43)c2)cc1" , if possible.
### Response 97

### Prompt Then this molecule: CC(C)C[C@H](NC(=O)CNC(=O)c1cc(Cl)ccc1Cl)B1OC(=O)CC(CC(=O)O)(C(=O)O)O1 (stereo partly specified)
### Response 114

### Prompt Okay, and O=C(NOCC(O)CO)c1ccc(F)c(F)c1Nc1ccc(I)cc1Cl (stereo unspecified) ?
### Response 100

### Prompt Same question, "COC(=O)/C=C/C(=O)OC" this time
### Response 106

### Prompt Another molecule to look at: "CCOC(=O)c1ccc(N2NC(=O)/C(=C/c3ccc([N+](=O)[O-])o3)C2=O)cc1"
### Response 99

### Prompt What would you report for "Cc1nc(-c2ccc(OCC(C)C)c(C#N)c2)sc1C(=O)O" ?
### Response 85

### Prompt // query: "CCn1c(-c2nonc2N)nc2cncc(CNC3CCNCC3)c21"
### Response 46

### Prompt Nc1cccc2c1CN(C1CCC(=O)NC1=O)C2=O (stereo unspecified) , same question.
### Response 112

### Prompt Next record, please: "C=CC(=O)N1CCC[C@@H](n2nc(-c3ccc(Oc4ccccc4)cc3)c3c(N)ncnc32)C1"
### Response 99
